The entries below come with measured remaining activity at 50 µM values attached.
Molecular target: PYL1 (Arabidopsis thaliana)
Construct: 6X-His; made in house; host or cells: E. coli BL21[DE3]pLysS
Sequence (Q8VZS8 whole entry, one chain of several): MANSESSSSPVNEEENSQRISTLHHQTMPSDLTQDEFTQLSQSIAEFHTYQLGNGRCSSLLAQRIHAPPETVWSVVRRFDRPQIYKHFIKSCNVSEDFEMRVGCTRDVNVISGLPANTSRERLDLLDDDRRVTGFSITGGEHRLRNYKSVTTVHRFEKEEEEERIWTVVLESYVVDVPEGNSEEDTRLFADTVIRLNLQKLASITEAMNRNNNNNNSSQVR
Assay: receptor-mediated PP2C (HAB1) inhibition in vitro assay
Format: biochemical
Conditions: 50 uM of the test compound
All answers are understood in %, so give the number only.

For orientation, consider the following solved cases.
                                   compound                property_name  meas_value
0  O=C(NS(=O)(=O)Cc1ccc(F)cc1)C1(c2ccccc2)CCCCC1  remaining activity at 50 µM         102
1  O=C(NS(=O)(=O)Cc1ccc([N+](=O)[O-])cc1)C1(c2ccccc2)CCCCC1  remaining activity at 50 µM         101
2  N#Cc1ccc(CS(=O)(=O)NC(=O)C2(c3ccsc3)CCCCC2)cc1Br  remaining activity at 50 µM        94.3
3  CC1(C)CCC(C(=O)NS(=O)(=O)Cc2ccc(C#N)cc2)(c2ccc(F)cc2)CC1  remaining activity at 50 µM          96
4  N#Cc1ccc(CS(=O)(=O)NC(=O)C2(c3cccs3)CCCCC2)cc1  remaining activity at 50 µM        95.5
5  N#Cc1ccc(CS(=O)(=O)NC(=O)C(c2ccc(F)cc2)c2ccc(F)cc2)cc1  remaining activity at 50 µM        94.2
6  N#Cc1ccc(CS(=O)(=O)NC(=O)C(c2ccccc2)c2ccccc2)cc1  remaining activity at 50 µM        93.8
7      CC(C)COC(=O)NS(=O)(=O)Cc1ccc(C#N)cc1  remaining activity at 50 µM        91.7

In the following, a different compound is considered.
Recorded remaining activity at 50 µM (compound `N#Cc1ccc(CS(=O)(=O)NC(=O)C2(c3ccccc3)CCCCC2)cc1` ): 98.4

###

Target: PYL8 (Arabidopsis thaliana)
Construct: 6X-His; made in house; host or cells: E. coli BL21[DE3]pLysS
Sequence (Q9FGM1 1-188): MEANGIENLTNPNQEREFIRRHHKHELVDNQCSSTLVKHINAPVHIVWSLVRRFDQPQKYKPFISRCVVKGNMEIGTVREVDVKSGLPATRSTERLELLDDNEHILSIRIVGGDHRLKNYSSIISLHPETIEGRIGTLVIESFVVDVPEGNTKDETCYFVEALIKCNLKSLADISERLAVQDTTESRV
Sequence (Q9CAJ0 23-511 partner): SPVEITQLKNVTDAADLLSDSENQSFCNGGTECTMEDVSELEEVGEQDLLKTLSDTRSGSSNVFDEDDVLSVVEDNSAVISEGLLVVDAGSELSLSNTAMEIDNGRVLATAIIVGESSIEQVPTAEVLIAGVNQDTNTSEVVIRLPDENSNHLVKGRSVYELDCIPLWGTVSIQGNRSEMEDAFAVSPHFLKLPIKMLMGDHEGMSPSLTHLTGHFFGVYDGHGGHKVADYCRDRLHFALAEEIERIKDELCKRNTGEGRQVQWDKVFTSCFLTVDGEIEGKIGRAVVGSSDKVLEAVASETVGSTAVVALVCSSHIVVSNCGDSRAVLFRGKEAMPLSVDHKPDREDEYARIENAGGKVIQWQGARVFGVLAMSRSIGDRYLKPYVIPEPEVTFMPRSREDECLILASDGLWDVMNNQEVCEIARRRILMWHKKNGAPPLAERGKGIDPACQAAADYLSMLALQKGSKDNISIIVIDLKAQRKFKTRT
Assay: receptor-mediated PP2C (HAB1) inhibition in vitro assay
Format: biochemical
Settings: compound at 25 μM; control without agonist = 100%
PROPERTY_NAME: PP2C Activity (25 μm) PYL8
The answer should read as a number with its unit following.

Illustrative cases are given below, each with its answer.
>>> print(df.to_string())
                                   compound               property_name  meas_value
0  CC(C)(C(=O)NS(=O)(=O)Cc1ccc(C#N)cc1)c1ccc(Br)cc1  PP2C Activity (25 μm) PYL8         69%
1  Cc1cccc(C2(C(=O)NS(=O)(=O)Cc3ccc(C#N)cc3)CC2)c1  PP2C Activity (25 μm) PYL8         77%

Note to self: PP2C Activity (25 μm) PYL8 of `N#Cc1ccc(CS(=O)(=O)NC(=O)C2(c3ccc(Cl)cc3)CCC2)cc1` with PYL8 (Arabidopsis thaliana) was 55%

Kindly note: PYL8 (Arabidopsis thaliana), `N#Cc1ccc(CS(=O)(=O)NC(=O)C2(c3ccccc3F)CC2)cc1` , PP2C Activity (25 μm) PYL8 value reported: 86%

The compound CC(C)(C)c1ccc(C2(C(=O)NS(=O)(=O)Cc3ccc(C#N)cc3)CC2)cc1 [Compound 40] on PYL8 (Arabidopsis thaliana): PP2C Activity (25 μm) PYL8 was 106%

Note to self: PP2C Activity (25 μm) PYL8 of `CC(C)(C(=O)NS(=O)(=O)Cc1ccc2cccnc2c1)c1ccccc1` with PYL8 (Arabidopsis thaliana) was 72%

Here `CC(C)(C(=O)NS(=O)(=O)Cc1ccc(F)cc1)c1ccccc1` was tested on PYL8 (Arabidopsis thaliana), and its PP2C Activity (25 μm) PYL8 came to 59%

Let me check: `COc1ccc(C2(C(=O)NS(=O)(=O)Cc3ccc(C#N)cc3)CCCC2)cc1` , system PYL8 (Arabidopsis thaliana), measured PP2C Activity (25 μm) PYL8 is 71%

Let me check: `CC(C)(C(=O)NS(=O)(=O)Cc1ccc(C#N)cc1)c1cccc(Br)c1` , system PYL8 (Arabidopsis thaliana), measured PP2C Activity (25 μm) PYL8 is 58%

###

Reported PP2C Activity (25 μm) PYL8 values for a set of compounds
Biological target: PYL8 (Arabidopsis thaliana, UniProt Q9FGM1)
Construct: 6X-His; made in house; host or cells: E. coli BL21[DE3]pLysS
Test: receptor-mediated PP2C (HAB1) inhibition in vitro assay
Format: biochemical
Conditions: compound at 25 μM; control without agonist = 100%
# unit: % | format: bare number

Here are 2 compounds together with their reported answers.
>>> print(df.to_string())
                                   compound                               system_name  meas_value
0  N#Cc1ccc(CS(=O)(=O)NC(=O)C2(c3cccc(F)c3)CCC2)cc1 [Compound 33]  PYL8 (Arabidopsis thaliana, UniProt Q9FGM1)          39
1  CC(=O)N1CCC(C(=O)NS(=O)(=O)Cc2ccc(C#N)cc2)(c2ccccc2)CC1 [Compound 56]  PYL8 (Arabidopsis thaliana, UniProt Q9FGM1)         106

PP2C Activity (25 μm) PYL8 for PYL8 (Arabidopsis thaliana, UniProt Q9FGM1) with input CCc1ccc(C(C)(C)C(=O)NS(=O)(=O)Cc2ccc(C#N)cc2)cc1 [Compound 20] equals 104

Test item N#Cc1ccc(CS(=O)(=O)NC(=O)C2(c3ccc(Br)cc3)CCC2)cc1 [Compound 31] ; PYL8 (Arabidopsis thaliana, UniProt Q9FGM1); reported PP2C Activity (25 μm) PYL8 was 80

PYL8 (Arabidopsis thaliana, UniProt Q9FGM1) data for Cc1ccc(C(C)(C)C(=O)NS(=O)(=O)Cc2ccc(C#N)cc2)cc1 [Compound 12] ; its PP2C Activity (25 μm) PYL8: 62

Tested system PYL8 (Arabidopsis thaliana, UniProt Q9FGM1); PP2C Activity (25 μm) PYL8 recorded for N#Cc1ccc(CS(=O)(=O)NC(=O)C2(c3ccc(C(F)(F)F)cc3)CCOCC2)cc1 [Compound 59] was 97

Item: CC(C)(C(=O)NS(=O)(=O)Cc1ccc(C#N)cc1)c1ccc(C(F)(F)F)cc1 [Compound 11] | System: PYL8 (Arabidopsis thaliana, UniProt Q9FGM1) | PP2C Activity (25 μm) PYL8: 62

Kindly note: PYL8 (Arabidopsis thaliana, UniProt Q9FGM1), CCOc1ccc(C2(C(=O)NS(=O)(=O)Cc3ccc(C#N)cc3)CC2)cc1 [Compound 52] , PP2C Activity (25 μm) PYL8 value reported: 91

###

remaining activity at 50 µM values for the compounds below.
Target: PYL10 (Arabidopsis thaliana)
Construct: 6X-His; made in house; host or cells: E. coli BL21[DE3]pLysS
Sequence (Q8H1R0 whole entry, one chain of several): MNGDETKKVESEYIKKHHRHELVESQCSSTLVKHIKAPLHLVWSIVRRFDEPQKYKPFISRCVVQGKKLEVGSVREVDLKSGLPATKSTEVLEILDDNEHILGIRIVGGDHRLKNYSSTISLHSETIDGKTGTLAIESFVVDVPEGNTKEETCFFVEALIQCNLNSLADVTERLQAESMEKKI
Assay: receptor-mediated PP2C (HAB1) inhibition in vitro assay
Assay type: biochemical
Details: 50 uM of the test compound
Could you give me the number in %? Just the number is fine.

Completed entries (count: 5):
                                   compound                property_name  meas_value
0  N#Cc1ccc(CS(=O)(=O)NC(=O)C2(c3ccsc3)CCCCC2)cc1Br [Compound 106]  remaining activity at 50 µM        22.5
1  CC(C)COC(=O)NS(=O)(=O)Cc1ccc(C#N)cc1 [Compound 65]  remaining activity at 50 µM        39.2
2  CC1CCC(C(=O)NS(=O)(=O)Cc2ccc(C#N)cc2)(c2ccc(F)cc2)CC1 (stereo not drawn) [Compound 67]  remaining activity at 50 µM        48.2
3  N#Cc1ccc(CS(=O)(=O)NC(=O)C(c2ccccc2)c2ccccc2)cc1 [Compound 71]  remaining activity at 50 µM        86.5
4  N#Cc1ccc(CS(=O)(=O)NC(=O)C2(c3ccccc3)CCCCC2)cc1 [Compound 69]  remaining activity at 50 µM        27.3

In plain terms, O=C(NS(=O)(=O)Cc1ccc(F)cc1)C1(c2ccccc2)CCCCC1 [Compound 64] has a documented remaining activity at 50 µM of 89.8

Reported remaining activity at 50 µM of N#Cc1ccc(CS(=O)(=O)NC(=O)C(C2CCCCC2)C2CCCCC2)cc1 [Compound 73] : 85.7

Measured remaining activity at 50 µM of N#Cc1ccc(CS(=O)(=O)NC(=O)C2(c3cccs3)CCCCC2)cc1 [Compound 75] : 27

The value of remaining activity at 50 µM measured for the compound N#Cc1ccc(CS(=O)(=O)NC(=O)C2(c3ccsc3)CCCCC2)cc1 [Compound 78] turned out to be 25.6

So for CC1(C)CCC(C(=O)NS(=O)(=O)Cc2ccc(C#N)cc2)(c2ccc(F)cc2)CC1 [Compound 68] , the logged remaining activity at 50 µM turned out to be 83.3

remaining activity at 50 µM for N#Cc1ccc(CS(=O)(=O)NC(=O)C(c2ccc(F)cc2)c2ccc(F)cc2)cc1 [Compound 72] is 98

Lookup result for O=C(NS(=O)(=O)Cc1ccc([N+](=O)[O-])cc1)C1(c2ccccc2)CCCCC1 [Compound 63] ; measured remaining activity at 50 µM: 88.9
